Measured values drawn from ChEMBL document CHEMBL5058577 for this set.

Test system: Fibroblast
measurement-notes: Multiplex assay against human fibroblast
Assay type: toxicity, cell-based
recorded-conditions: 12 h, 10 µM, compound concentration 10 uM, replicate 2
The entries below come with measured Population Membrane Permeable-Phenotype (%) values attached.
endpoint-name: Population Membrane Permeable-Phenotype (%)

{"compound": "COc1cc(OC2CCN(C(C)=O)CC2)ccc1C(=O)N1CCC(N2C(=O)OCc3ccccc32)CC1", "numeric-readout": 2}
{"compound": "CN1CCN2c3ccccc3Cc3ccccc3C2C1.Cl (centres undefined) [MIANSERIN HYDROCHLORIDE]", "numeric-readout": 3}
{"compound": "CC(C)(O)C(=O)N1CCN(c2ccc(C(F)(F)F)c(C3=C(c4c[nH]c5ccccc45)C(=O)NC3=O)c2)CC1", "numeric-readout": 15}
{"compound": "COC(c1ccccc1)(c1ccccc1)[C@H](Oc1nc(C)cc(C)n1)C(=O)O", "numeric-readout": 5}

###

Test system: U2OS
measurement-notes: Multiplex assay against U2OS
Type: toxicity, cell-based
recorded-conditions: human, 48 h, 1 µM, compound concentration 1 uM, replicate 2
Non-standard residues stand in square brackets, D forms with d. Residues, ends and D or L forms follow the SMILES beside them.
Values of Population Mitotic Cells (%) strictly less than 8% map to criterion met, and values of at least 8% map to criterion not met.

{"compound": "CN(C)C(=O)Cn1cc(-c2ccc(-c3nnc4ccccn34)cc2)cn1", "group": "criterion met"}
{"compound": "O=C(O)CCC/C=C\\CC1C(O)CC(O)C1/C=C/C(O)COc1cccc(Cl)c1 (stereo not drawn) [CLOPROSTENOL]", "group": "criterion not met"}
{"compound": "CSc1nc(NC2CCCC2)c([N+](=O)[O-])c(NC2CCCC2)n1 [GS-39783]", "group": "criterion met"}
{"compound": "CN1CCC(C(=O)c2cccc(NC(=O)c3c(F)cc(F)cc3F)n2)CC1", "group": "criterion not met"}
{"compound": "CC(C)C[C@@H]1NC(=O)[C@@H](C(C)C)NC(=O)[C@@H]2CCCN2C(=O)[C@@H](CC(=O)O)NC(=O)[C@@H](Cc2c[nH]c3ccccc23)NC1=O [BQ-123] (cyclo(L[dW][dD]P[dV]))", "group": "criterion met"}
{"compound": "S=C(NCCCc1c[nH]cn1)NCCCN(Cc1ccc(Cl)c(Cl)c1)c1ccc(Br)cn1", "group": "criterion not met"}
{"compound": "COc1cc(Nc2ncc3c(n2)-c2ccc(Cl)cc2C(c2c(F)cccc2OC)=NC3)ccc1C(=O)O [ALISERTIB]", "group": "criterion not met"}

###

Tested on: Fibroblast
measurement-notes: Multiplex assay against human fibroblast
Type: toxicity, cell-based
recorded-conditions: 24 h, 1 µM, compound concentration 1 uM, replicate 2
Listing of recorded Total Cell Count by entry.
endpoint-name: Total Cell Count

{"cpd-smiles": "COCCn1c(C)c(C)s/c1=N\\C(=O)C1C(C)(C)C1(C)C", "measured-target": "Fibroblast", "numeric-readout": 132}
{"cpd-smiles": "CN(C)C(=O)Cn1cc(-c2ccc(-c3nnc4ccccn34)cc2)cn1", "measured-target": "Fibroblast", "numeric-readout": 142}
{"cpd-smiles": "C[C@H](NC(=O)CNC(=O)c1cccc(Cl)c1)c1ccccc1", "measured-target": "Fibroblast", "numeric-readout": 145}

###

System: HEK-293T
measurement-notes: Multiplex assay against HEK293T
Type: toxicity, cell-based
recorded-conditions: human, 48 h, 1 µM, compound concentration 1 uM, replicate 2
List of Population Tubulin-Different-Phenotype (%) values.
endpoint-name: Population Tubulin-Different-Phenotype (%)

{"molecule": "Cc1cc(NC(=O)NCCN2CCC(O)(Cc3ccccc3)CC2)c2ccccc2n1 [PALOSURAN]", "numeric-readout": 15}
{"molecule": "CCCCC[C@H](O)/C=C/[C@H]1[C@H](O)CC(=O)[C@@H]1CCCCCCC(=O)O [ALPROSTADIL]", "numeric-readout": 12}
{"molecule": "CCc1nn2c(C)cc(C)nc2c1Cc1ccc(-c2nnc(C3CCNCC3)o2)cc1", "numeric-readout": 10}
{"molecule": "CCCCCCNC(=O)Nc1ccc(S(=O)(=O)Nc2ccc(CCNC[C@H](O)COc3ccc(O)cc3)cc2)cc1 [L-755507]", "numeric-readout": 20}
{"molecule": "COc1ccc2[nH]c(I)c(CCNC(C)=O)c2c1 [IODOMELATONIN]", "numeric-readout": 14}
{"molecule": "COCCCN1CCC(NC(=O)c2cc(Cl)c(N)c3c2OCC3)CC1 [PRUCALOPRIDE]", "numeric-readout": 9}
{"molecule": "OCCCNc1cc(-c2ccnc(Nc3cccc(Cl)c3)n2)ccn1", "numeric-readout": 59}
{"molecule": "CCC(=O)OCC(=O)[C@@]1(OC(=O)CC)[C@@H](C)C[C@H]2[C@@H]3CCC4=CC(=O)C=C[C@]4(C)[C@@]3(Cl)[C@@H](O)C[C@@]21C [BECLOMETHASONE DIPROPIONATE]", "numeric-readout": 17}
{"molecule": "COc1c(Nc2ccc(S(C)(=O)=O)nc2C)ncnc1OC1CCN(C(=O)OC(C)C)CC1 [ADP-597]", "numeric-readout": 14}
{"molecule": "CC(C)(O)C(=O)N1CCN(c2ccc(C(F)(F)F)c(C3=C(c4c[nH]c5ccccc45)C(=O)NC3=O)c2)CC1", "numeric-readout": 15}
{"molecule": "Cc1c(Cc2ccc3ccccc3n2)c2cc(F)ccc2n1CC(=O)O [TIMAPIPRANT]", "numeric-readout": 12}
{"molecule": "Cc1cc(O)c(-c2ccc([C@@H](C)CN(C)C)cc2)c2c1[nH]c(=O)c1sccc12", "numeric-readout": 70}
{"molecule": "COC(c1ccccc1)(c1ccccc1)[C@H](Oc1nc(C)cc(C)n1)C(=O)O [AMBRISENTAN]", "numeric-readout": 10}
{"molecule": "O=C(Nc1cc(-c2ccccc2)nn1-c1ccccc1F)c1ccc([N+](=O)[O-])cc1", "numeric-readout": 11}
{"molecule": "COc1cc2nc(N3CCN(C(=O)COc4c(OC)cccc4C(C)C)CC3)nc(N)c2cc1OC.Cl.Cl", "numeric-readout": 12}
{"molecule": "Cl.Cl.OCCOCCN1CCN(C(c2ccccc2)c2ccc(Cl)cc2)CC1 (configuration not stated) [HYDROXYZINE HYDROCHLORIDE]", "numeric-readout": 12}
{"molecule": "C[C@H](NC(=O)CNC(=O)c1cccc(Cl)c1)c1ccccc1", "numeric-readout": 6}

###

Tested on: HEK-293T
measurement-notes: Multiplex assay against HEK293T
Format: toxicity, cell-based
recorded-conditions: human, 48 h, 10 µM, compound concentration 10 uM, replicate 2

{"cpd-smiles": "COc1c(Nc2ccc(S(C)(=O)=O)nc2C)ncnc1OC1CCN(C(=O)OC(C)C)CC1", "measured-target": "HEK-293T", "Population Normal (%)": 89}
{"cpd-smiles": "COc1ccc2c(c1OCc1ccccc1)C[C@@H](C(=O)O)N(C(=O)C(c1ccccc1)c1ccccc1)C2", "measured-target": "HEK-293T", "Population Normal (%)": 93}
{"cpd-smiles": "COc1cc(Nc2ncc3c(n2)-c2ccc(Cl)cc2C(c2c(F)cccc2OC)=NC3)ccc1C(=O)O", "measured-target": "HEK-293T", "Population Normal (%)": 67}
{"cpd-smiles": "COC(c1ccccc1)(c1ccccc1)[C@H](Oc1nc(C)cc(C)n1)C(=O)O", "measured-target": "HEK-293T", "Population Normal (%)": 92}
{"cpd-smiles": "C[C@@H]1CC(=O)Nc2cccc(-c3ccc4c(c3)c(-c3cnn(C)c3)nn4C)c2N1", "measured-target": "HEK-293T", "Population Normal (%)": 97}
{"cpd-smiles": "Cc1cc(=O)n(C)c2cc(N3C(=O)CC[C@H](NS(=O)(=O)CC(C)C)[C@H]3c3ccc(Cl)cc3)ccc12", "measured-target": "HEK-293T", "Population Normal (%)": 80}
{"cpd-smiles": "CC(C)C[C@H](CO)Nc1nc(S[C@@H](C)c2ccccc2)nc2nc(N)sc12", "measured-target": "HEK-293T", "Population Normal (%)": 93}

###

The following molecules are shown together with reported Population Hoechst High Intensity Objects (%) values.
Test system: HEK-293T
measurement-notes: Multiplex assay against HEK293T
Format: toxicity, cell-based
recorded-conditions: human, 24 h, 10 µM, compound concentration 10 uM, replicate 1
endpoint-name: Population Hoechst High Intensity Objects (%)

{"molecule": "O=c1ccc2ccc(OCCCCN3CCN(c4cccc5sccc45)CC3)cc2[nH]1 [BREXPIPRAZOLE]", "measured-target": "HEK-293T", "unit-spec": "%", "numeric-readout": 68}
{"molecule": "COc1c(Nc2ccc(S(C)(=O)=O)nc2C)ncnc1OC1CCN(C(=O)OC(C)C)CC1 [ADP-597]", "measured-target": "HEK-293T", "unit-spec": "%", "numeric-readout": 7}
{"molecule": "COc1cc2nc(N3CCN(C(=O)COc4c(OC)cccc4C(C)C)CC3)nc(N)c2cc1OC.Cl.Cl", "measured-target": "HEK-293T", "unit-spec": "%", "numeric-readout": 29}
{"molecule": "CC(C)(C)c1ccc(CSc2cnn(C(C)(C)C)c(=O)c2Cl)cc1 [PYRIDABEN]", "measured-target": "HEK-293T", "unit-spec": "%", "numeric-readout": 10}
{"molecule": "Cc1sc2c(c1C)C(c1ccc(Cl)cc1)=N[C@H](CC(=O)OC(C)(C)C)c1nnc(C)n1-2", "measured-target": "HEK-293T", "unit-spec": "%", "numeric-readout": 4}
